# system_under_test: PCSK9 (Homo sapiens, UniProt Q8NBP7, G670E/V474I)
# Sequence (Q8NBP7 with tags, fused parts or gaps V474I/G670E): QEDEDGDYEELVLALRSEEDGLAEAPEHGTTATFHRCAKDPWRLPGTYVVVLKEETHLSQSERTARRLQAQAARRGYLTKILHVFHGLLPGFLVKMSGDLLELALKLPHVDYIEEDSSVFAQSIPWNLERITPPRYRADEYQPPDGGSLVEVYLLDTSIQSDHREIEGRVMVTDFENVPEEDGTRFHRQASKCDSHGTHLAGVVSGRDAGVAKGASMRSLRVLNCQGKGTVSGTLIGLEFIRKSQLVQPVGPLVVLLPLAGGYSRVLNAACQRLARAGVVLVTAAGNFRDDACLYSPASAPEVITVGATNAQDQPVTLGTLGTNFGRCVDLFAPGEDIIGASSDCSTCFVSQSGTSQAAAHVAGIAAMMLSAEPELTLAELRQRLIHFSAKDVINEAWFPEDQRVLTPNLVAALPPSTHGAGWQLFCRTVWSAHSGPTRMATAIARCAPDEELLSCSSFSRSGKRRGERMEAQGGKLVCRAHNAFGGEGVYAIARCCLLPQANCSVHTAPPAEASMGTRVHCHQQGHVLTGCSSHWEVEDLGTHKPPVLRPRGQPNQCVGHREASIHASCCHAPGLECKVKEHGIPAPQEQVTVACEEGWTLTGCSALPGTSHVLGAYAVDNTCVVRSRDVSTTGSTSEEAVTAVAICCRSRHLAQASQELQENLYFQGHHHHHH
# experiment_notes: biochemical
pIC50: −log10 of the molar value.
Condition met means recorded pIC50 is 8 or above; Condition not met means it is below 8.

Illustrative cases are given below, each with its answer.
Cc1cnc(N[C@H]2CC[C@H](Nc3ccc(-c4ccccc4C#N)cn3)C2)nn1 : Condition not met
Cc1nnc(N[C@H]2CC[C@H](Nc3ccc(-n4ccccc4=O)cn3)C2)[nH]c1=O : Condition not met
O=c1c(OC(F)F)cccn1-c1ccc(N[C@H]2CC[C@H](Nc3ncc(C4CC4)nn3)C2)nc1 : Condition met

In plain terms: is recorded pIC50 at least 8 for O=c1c(OC(F)(F)F)cccn1-c1ccc(N[C@H]2CC[C@H](Nc3ncc(C4CC4)nn3)C2)nc1 ?
Condition met

In plain terms: is recorded pIC50 at least 8 for Cc1cnc(N[C@H]2CC[C@H](Nc3ccc(-c4ccccn4)cn3)C2)nn1 ?
Condition not met

In plain terms: is recorded pIC50 at least 8 for NC(=O)CNC(=O)c1cnc(N[C@H]2CC[C@H](Nc3ccc(-n4ccccc4=O)cn3)C2)nn1 ?
Condition not met

In plain terms: is recorded pIC50 at least 8 for COc1cccnc1-c1ccc(N[C@H]2CC[C@H](Nc3ncc(C)nn3)C2)nc1 ?
Condition not met

In plain terms: is recorded pIC50 at least 8 for Cn1c(=O)n(-c2ccc(N[C@H]3CC[C@H](Nc4ncc(C5CC5)nn4)C3)nc2)c2ccc(C(=O)O)cc21 ?
Condition met
